So I've got a bunch of compounds here, and I need their pest or weed control at 100 ppm values.
tested on: Rhipicephalus microplus; assay: Rhipicephalus (Boophilus) microplus dip test (BOOPMI Dip); assay type: in vivo; conditions: 168 h, application rate 100 ppm, engorged adult female ticks, after 7 days, read-out: activity (efficacy: 100% means all eggs are infertile)
One number for each entry, in %.

CCc1nc([C@H](C)NC(=O)c2cc(Cl)cc(Cl)c2)n(-c2ccc(C#N)cn2)n1 [I-2]
100
C[C@H](NC(=O)c1cc(Cl)cc(C(F)(F)F)c1)c1ncnn1-c1cc(-n2cncn2)ccn1 [II-43]
100
CC(C)c1nc([C@H](C)NC(=O)c2cc(Cl)cc(C(F)(F)F)c2)n(-c2ccc(C#N)cn2)n1 [I-8]
100
Cc1nc([C@H](C)NC(=O)c2cc(Br)cc(C#N)c2)n(-c2ccc(C#N)cn2)n1 [II-54]
80
CCc1nc([C@H](C)NC(=O)c2cc(C(F)(F)F)cc(C(F)(F)F)c2)n(-c2ccc(C#N)cn2)n1 [I-1]
100

Here are 8 compounds. What values of pest or weed control at 100 ppm were reported for them?
1. C[C@H](NC(=O)c1cc(C(F)(F)F)cc(C(F)(F)F)c1)c1ncnn1-c1ccc(C(=O)N(C)C2CC2)cn1 [II-38]
2. CC(C)c1nc([C@H](C)NC(=O)c2cc(C(F)(F)F)cc(C(F)(F)F)c2)n(-c2ccc(C#N)cn2)n1 [I-7]
3. Cc1nc([C@H](C)NC(=O)c2cc(Cl)cc(Br)c2)n(-c2ccc(C#N)cn2)n1 [II-50]
4. Cc1nc([C@H](C)NC(=O)c2cc(Br)cc(OC(F)(F)F)c2)n(-c2ccc(C#N)cn2)n1 [II-47]
5. Cc1nc([C@H](C)NC(=O)c2cncc(C(F)(F)F)c2)n(-c2ccc(C#N)cn2)n1 [II-63]
6. Cc1nc([C@H](C)NC(=O)c2cc(C#N)cc(C(F)(F)F)c2)n(-c2ccc(C#N)cn2)n1 [II-53]
7. CCN(C)C(=O)c1ccc(-n2nc(C)nc2[C@H](C)NC(=O)c2cc(C(F)(F)F)cc(C(F)(F)F)c2)nc1 [II-97]
8. Cc1nc([C@H](C)NC(=O)c2cc(C(F)(F)F)cc(C(F)(F)F)c2)n(-c2ccc(C(=O)N(C)C3CC3)cn2)n1 [II-96]

Resp:
1. 80
2. 100
3. 100
4. 80
5. 100
6. 100
7. 100
8. 100

Would you mind giving pest or weed control at 100 ppm for every compound in the list below?
1. C[C@H](NC(=O)c1cc(Cl)nc(C(F)(F)F)c1)c1ncnn1-c1ccc(C#N)cn1 [II-5]
2. C[C@H](NC(=O)c1cc(C(F)(F)F)cc(C(F)(F)F)c1)c1ncnn1-c1ccc(C(=O)N(C)CC2CC2)cn1 [II-73]

Resp:
1: 100; 2: 100
